# System: OVCAR-3 ovarian
# PROTOCOL_DESCRIPTION: NCI-60 one-dose screen, 48 h
# CONDITION_NOTES: 10 µM unless noted
The panel holds about 83,000 compounds, 20% with a hit somewhere; the sample as a whole holds those more often. Activity calls are given as the source filed them. Rule for the calls: active = growth percent below 10; inactive = the rest.
# output must be one of active, inactive

Sample answers from the record:
>>> df
                                   compound    tested_system  discrete_label
0  COC(=O)/C(CCC=C(C)C)=C1\[C@@H](OC(C)=O)C[C@@]2(C)[C@H]1C[C@@H](O)[C@H]1[C@@]3(C)CC[C@H](NCCN)[C@@H](C)[C@@H]3CC[C@@]12C  OVCAR-3 ovarian        inactive
1  CS(=O)(=O)Nc1cc(-c2ccc3ncnc(Nc4c(Cl)ccc5c4OCO5)c3c2)cnc1Cl  OVCAR-3 ovarian          active
2  Brc1ccc(-n2cc(-c3nn[nH]n3)c(-c3cccs3)n2)cc1  OVCAR-3 ovarian        inactive
3  CN1CCN(c2ccc(NC(=O)c3cncnc3Nc3ccc(OCc4ccccn4)c(Cl)c3)cc2)CC1  OVCAR-3 ovarian        inactive
4  CS(=O)(=O)c1cccc(-c2c(-c3cccc(OS(N)(=O)=O)c3)nc3sccn23)c1  OVCAR-3 ovarian        inactive
5  O=S(=O)(NCCNc1cc(-c2c(-c3cccc(O)c3)nc3sccn23)ccn1)c1ccc(C(F)(F)F)cc1  OVCAR-3 ovarian        inactive

Identify the outcome logged in this assay for the compound shown: Nc1ncnc2c1N=C(c1ccc3c(c1)OCO3)CC(c1cccc(Nc3ccnc4cc(Cl)ccc34)c1)N2 (centres undefined)
inactive

Identify the outcome logged in this assay for the compound shown: `CCc1nc2c(=O)[nH]cnc2o1`
inactive

Identify the outcome logged in this assay for the compound shown: `O=C1c2cccc(NCCN=Cc3cc(O)ccc3O)c2C(=O)c2c(NCCN=Cc3cc(O)ccc3O)cccc21`
active

Identify the outcome logged in this assay for the compound shown: `CO/N=C(/C)c1ccc(NC(=O)CSc2nnc(-c3ccncc3)n2-c2ccccc2)cc1`
inactive

Identify the outcome logged in this assay for the compound shown: `O=C(O)c1ccc(-n2cc(/C=N/Nc3ccc(F)cc3)c(-c3cc4ccccc4oc3=O)n2)cc1`
inactive

Identify the outcome logged in this assay for the compound shown: `O=C1/C(=C/c2ccc(F)cc2)COc2ccc(O)cc21`
inactive

Identify the outcome logged in this assay for the compound shown: `COCCNC(=O)c1ccc(-c2nc3ccc4[nH]ncc4c3c3c2CCCC3)cc1`
inactive

Identify the outcome logged in this assay for the compound shown: `Cn1cc(-c2csc(-c3ccc(Cl)cc3)n2)c2cccnc21`
active

Identify the outcome logged in this assay for the compound shown: `O=C(CSc1nc2sc3c(c2c(=O)n1-c1ccccc1)CCCCC3)N/N=C/c1ccc(F)cc1`
active
